- experiment.summary: MTT colorimetric assay, dose response, cell viability
- Format: cell-based
- test.settings: human; HaCat cells; concentration of taurine 0.00100 w/w %; untreated = 100
readout.name: viability at 0.001 w/w % (%)
Only the number, expressed in %, is required.

[ask] What does the data say about its viability at 0.001 w/w %? Entry: NCCS(=O)(=O)O [Taurine, 2-aminoethanesulfonic acid]
[reply] 141

====

- experiment.summary: MTT colorimetric assay, dose response, cell viability
- Format: cell-based
- test.settings: human; HaCat cells; concentration of taurine 0.10000 w/w %; untreated = 100
readout.name: viability at 0.1 w/w %
Give the number first and the unit second.

[ask] What does the data say about its viability at 0.1 w/w %? Entry: NCCS(=O)(=O)O [Taurine, 2-aminoethanesulfonic acid]
[reply] 99%
